# TEST_PROTOCOL: Solubility at 37° C. in buffer solutions with different pH (about 10 mg in 1 ml, 2 h and 24 h); filtrate concentration and pH, XRPD of remaining solid
# Assay type: physicochemical
# MEASUREMENT_CONTEXT: buffer solution pH 1.2, 37 °C, pH 1.2, simulated gastric fluid, thermodynamic from solid, medium pH 1.2, 24 h; read-out: Solubility at 37° C.
READOUT: solubility at 24 h

// query What does the record list as solubility at 24 h for CCc1nc2c(N)ncc(-c3ccc(N4CCC(N5CCN(CC)CC5)CC4)c(OC)c3)c2nc1NC1CCOCC1 [Free base Form A] ?
// result > 10000 µg/mL
